Reference source: patent US20210040184A1

# system tested: HIV-1 AC10.0.29 envelope (Env) on Env.IMC.LucR virus (HIV-1 clade B)
# assay details: cell-based or functional assay
We begin with a simple list: items and their reported IC50 of virus neutralization (TZM-BL, luciferase).

Completed entries (count: 2):
| binder | result |
| --- | --- |
| Germ12_NglycoSA_CysCA (antibody, V domains shown) VH: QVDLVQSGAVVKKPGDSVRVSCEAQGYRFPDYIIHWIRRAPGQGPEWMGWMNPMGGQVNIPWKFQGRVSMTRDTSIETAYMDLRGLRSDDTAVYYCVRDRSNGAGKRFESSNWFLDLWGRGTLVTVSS VL: QSALTQPRSVSGSPGQSVTISCTGTHNLVSWAQHQPGRAPKLLIYDFNKRPSGVPDRFSGSGSGGTASLTISGLQDEDDAEYFCWAYEAFGGGTKLTVL | > 50 µg/mL |
| Germ12_NglycoSA_CysCV (antibody, V domains shown) VH: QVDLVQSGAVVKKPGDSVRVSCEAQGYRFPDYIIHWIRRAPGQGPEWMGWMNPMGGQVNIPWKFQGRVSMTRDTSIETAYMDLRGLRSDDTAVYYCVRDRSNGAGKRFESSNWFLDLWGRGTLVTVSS VL: QSALTQPRSVSGSPGQSVTISCTGTHNLVSWVQHQPGRAPKLLIYDFNKRPSGVPDRFSGSGSGGTASLTISGLQDEDDAEYFCWAYEAFGGGTKLTVL | > 50 µg/mL |

// IC50 of virus neutralization (TZM-BL, luciferase) value for NglycoND (antibody, V domains shown) VH: ADLVQSGAVVKKPGDSVRISCEAQGYRFPDYIIHWIRRAPGQGPEWMGWMNPMGGQVNIPWKFQGRVSMTRDTSIETAFLDLRGLKSDDTAVYYCVRDRSDGSGKRFESSNWFLDLWGRGTAVTIQS VL: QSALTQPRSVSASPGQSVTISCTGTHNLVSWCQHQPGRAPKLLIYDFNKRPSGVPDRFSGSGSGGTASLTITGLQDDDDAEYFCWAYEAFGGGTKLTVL : > 50 µg/mL
